Tested on: human cervical tumor cell line HeLa (ATCC CCL-2)
Assay: SAC-Formation - Nocodazole-Induced Assay
Assay type: cell-based
Conditions: Homo sapiens, HeLa, 24 h, HeLa cells, nocodazole 0.1 μg/ml together with test compound, decrease of mitotic cells (phospho-histone H3 Ser10)
Text: The spindle assembly checkpoint assures the proper segregation of chromosomes during mitosis. Upon entry into mitosis, chromosomes begin to condensate which is accompanied by the phosphorylation of histone H3 on serine 10. Dephosphorylation of histone H3 on serine 10 begins in anaphase and ends at early telophase. […] The mitotic breakthrough can be detected by the decrease of cells with phosphorylation of histone H3 on serine 10. […]
# pIC50 listing for each entry below
Just so you know, pIC50 here is -log10 of the concentration in molar units; reply with that number alone.

[[record]]
molecule = "Cc1nsc(Nc2cnc(C(F)(F)F)cn2)c1C(=O)Nc1ccc(OC[C@@H]2CCCN(CC(F)F)C2)nc1"
measured_endpoint = "pIC50"
val = 7.40


pIC50 lookup needed for `Cc1nsc(Nc2cnc3ccccc3n2)c1C(=O)Nc1cccc(C(=O)N2CCOCC2)c1` , thanks.
7.55

# get_value(readout='pIC50', item= `Cc1nsc(Nc2cnc(C(F)(F)F)cn2)c1C(=O)Nc1ccc(N2CCN(CC(F)(F)F)CC2)nc1` )
7.44

What value of pIC50 has been recorded for this entry: `Cc1nsc(Nc2cnc3ccccc3n2)c1C(=O)Nc1cccc(C(=O)N[C@@H](CCC(N)=O)C(=O)O)c1`
4.89

Which pIC50 reading was recorded for the molecule `COc1ccc(NC(=O)c2c(C)nsc2Nc2cnc3ccccc3n2)c(CC#N)n1` ?
6.28

Record request: pIC50 value, item `Cc1nsc(Nc2cnc(C(F)(F)F)cn2)c1C(=O)Nc1ccc(F)c(OC[C@H]2CCN(CC(F)(F)F)C2)c1`
7.55

# query: pIC50 of entry `Cc1nsc(Nc2cnc(C(F)(F)F)cn2)c1C(=O)Nc1ccc(F)c(OCCCNCCC(F)(F)F)c1`
7.00

Look at this molecule and give its reported pIC50. `Cc1nsc(Nc2cnc3ccccc3n2)c1C(=O)Nc1ccc(C(=O)OC(C)(C)C)cc1`
6.59

---

biological target: CDK2/CycE (Homo sapiens, UniProt P24941); construct: GST; test: CDK2/CycE kinase assay (TR-FRET); conditions: avg, read-out: CDK2 avg (IC50 [mol/l])
MEASURED_ENDPOINT: IC50

Below: 4 compounds and their reported IC50.
[[record]]
compound = "Cc1nsc(Nc2cnc(C(F)(F)F)cn2)c1C(=O)Nc1ccc(OCCCN(C)CCF)nc1 [Example 352]"
val = "≥ 20 µM"

[[record]]
compound = "Cc1nsc(Nc2cnc(C(F)(F)F)cn2)c1C(=O)Nc1ccc(F)c(OC[C@H]2CCCN(CCC(F)(F)F)C2)c1 [Example 418]"
val = "> 20 µM"

[[record]]
compound = "Cc1nsc(Nc2cnc(C(F)(F)F)cn2)c1C(=O)Nc1ccc(OC2CCCN(CC(F)F)C2)nc1 (stereo not shown) [Example 330]"
val = "≥ 20 µM"

[[record]]
compound = "Cc1nsc(Nc2cnc(C(F)(F)F)cn2)c1C(=O)Nc1ccc(C(=O)NC2CCN(CC(F)(F)F)CC2)cc1 [Example 165]"
val = "> 20 µM"


Returns the measured IC50 for the input compound. Input: Cc1nsc(Nc2ccc(C#N)cn2)c1C(=O)Nc1cccc(C(=O)OC(C)(C)C)c1 [Example 240]
> 20 µM

Suppose we examine the compound Cc1nsc(Nc2cnc(C(F)(F)F)cn2)c1C(=O)Nc1ccc(OCCCNCC(F)(F)F)nc1 [Example 292] ; what IC50 value has been reported?
> 20 µM

Suppose we examine the compound Cc1nsc(Nc2cnc(C(F)(F)F)cn2)c1C(=O)Nc1ccc(OCC2CCN(CCF)CC2)nc1 [Example 344] ; what IC50 value has been reported?
≥ 20 µM
